Sourced from paper PMC4545405

target: PelD (Pseudomonas aeruginosa, UniProt A0A0H2ZD98); assay: DRaCALA / DRaCALA-HTS inhibition of 32P-cdiGMP binding to PelD
READOUT_LABEL: pIC50
Remember, pIC50 is on a log scale: it is -log10 of the molar concentration.

Query :: Value lookup for pIC50; key = O=c1c2ccccc2[se]n1-c1ccccc1 [Eb, ebselen]
Result :: 5.30

###

biological target: PelD (Pseudomonas aeruginosa, UniProt A0A0H2ZD98); test: DRaCALA / DRaCALA-HTS inhibition of 32P-cdiGMP binding to PelD; settings: read-out: IC50 for PelD (inhibition of cdiGMP binding); DRaCALA
READOUT_LABEL: IC50 (µM)
Quick reminder: number only, in µM, skip the unit.

Query :: Value lookup for IC50; key = O=C1c2ccccc2[Se](=O)N1c1ccccc1 (stereo not shown) [EbO, ebselen oxide]
Result :: 5
